Hey, just so you know, these numbers are from patent US6211181A.

Molecular target: guinea-pig B2 receptor (Cavia porcellus)
Construct: Ileum segments are isolated from male guinea-pigs of the Dunkin-Hartley strain; tissue Iffa Credo, l'Arbresle, France (supplier of the animals); host or cells: ileum membranes of male Dunkin-Hartley guinea pigs
Sequence (O70526 1-372): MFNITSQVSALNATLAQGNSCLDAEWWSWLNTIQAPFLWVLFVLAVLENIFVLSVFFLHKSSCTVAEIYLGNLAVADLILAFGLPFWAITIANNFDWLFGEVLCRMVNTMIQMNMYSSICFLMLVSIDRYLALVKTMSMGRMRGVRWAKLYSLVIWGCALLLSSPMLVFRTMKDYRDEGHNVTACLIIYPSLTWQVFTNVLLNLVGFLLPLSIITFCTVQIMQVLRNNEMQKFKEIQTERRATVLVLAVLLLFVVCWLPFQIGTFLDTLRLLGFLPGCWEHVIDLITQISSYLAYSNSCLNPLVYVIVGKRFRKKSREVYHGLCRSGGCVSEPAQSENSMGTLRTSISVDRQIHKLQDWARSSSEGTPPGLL
Assay: [3H]-bradykinin binding to guinea-pig ileum membranes
Conditions: test compound at 10^-6 M, [3H]-bradykinin 120 pM, 90 min at 20° C., read-out: ACTIVITY % (percentage inhibition of the binding of [3H]-bradykinin)
Counter-ions that a name gives are not always drawn.
MEASURED PROPERTY: inhibition at 1 µM (%)

- MOLECULE: "Cc1ccc2cccc(OCc3c(Cl)ccc(S(=O)(=O)N4CCC[C@H]4C(=O)N4CCNCC4)c3Cl)c2n1"
  inhibition at 1 µM / %: 100
- MOLECULE: "Cc1cc(C)c2cccc(OCc3c(Cl)ccc(S(=O)(=O)N4CCC[C@H]4C(=O)NCCNC(=N)N)c3Cl)c2n1 [Example 19, dihydrochloride]"
  inhibition at 1 µM / %: 97
- MOLECULE: "Cc1ccc2cccc(OCc3c(Cl)ccc(S(=O)(=O)N4CCC[C@H]4C(=O)N4CCN(C(=NC(C)C)NC(C)C)CC4)c3Cl)c2n1 [Example 27, dihydrochloride]"
  inhibition at 1 µM / %: 100
- MOLECULE: "Cc1ccc2cccc(OCc3c(Cl)ccc(S(=O)(=O)N4CCC[C@H]4C(=O)NCC4CCNCC4)c3Cl)c2n1 [Example 10, dihydrochloride]"
  inhibition at 1 µM / %: 100
- MOLECULE: "Cc1ccc2cccc(OCc3c(Cl)ccc(S(=O)(=O)N4CCC[C@H]4C(=O)NC4CCNCC4)c3Cl)c2n1 [Example 8, dihydrochloride]"
  inhibition at 1 µM / %: 100
- MOLECULE: "Cc1ccc2cccc(OCc3c(Cl)ccc(S(=O)(=O)N4CCC[C@H]4C(=O)NCCCN)c3Cl)c2n1 [Example 9, dihydrochloride]"
  inhibition at 1 µM / %: 100
- MOLECULE: "Cc1ccc2cccc(OCc3c(Cl)ccc(S(=O)(=O)N4CCC[C@H]4C(=O)N4CC(C)N(C(=N)N)C(C)C4)c3Cl)c2n1 (stereo partly shown) [Example 25, dihydrochloride]"
  inhibition at 1 µM / %: 100
- MOLECULE: "Cc1ccc2cccc(OCc3c(Cl)ccc(S(=O)(=O)N4CCC[C@H]4C(=O)N4CCN(C(=N)N)CC4)c3Cl)c2n1 [Example 24, dihydrochloride]"
  inhibition at 1 µM / %: 98
- MOLECULE: "Cc1ccc2cccc(OCc3c(Cl)ccc(S(=O)(=O)N4CCC[C@H]4C(=O)NCCNC(=N)N)c3Cl)c2n1 [Example 16, bistrifluoroacetate]"
  inhibition at 1 µM / %: 100
- MOLECULE: "Cc1ccc2cccc(OCc3c(Cl)ccc(S(=O)(=O)N4CCC[C@H]4C(=O)NCCN)c3Cl)c2n1"
  inhibition at 1 µM / %: 100
- MOLECULE: "Cc1ccc2cccc(OCc3c(Cl)ccc(S(=O)(=O)N4CCC[C@H]4C(=O)NCC4CCN(C(=N)N)CC4)c3Cl)c2n1 [Example 22, dihydrochloride]"
  inhibition at 1 µM / %: 98
- MOLECULE: "Cc1ccc2cccc(OCc3c(Cl)ccc(S(=O)(=O)N4CCC[C@H]4C(=O)NC4CCN(C(=N)N)CC4)c3Cl)c2n1 [Example 23, dihydrochloride]"
  inhibition at 1 µM / %: 100
- MOLECULE: "Cc1cc(C)c2cccc(OCc3c(Cl)ccc(S(=O)(=O)N4CCC[C@H]4C(=O)NCCCNC(=N)N)c3Cl)c2n1 [Example 20, dihydrochloride]"
  inhibition at 1 µM / %: 98
- MOLECULE: "Cc1cc(C)c2cccc(OCc3c(Cl)ccc(S(=O)(=O)N4C[C@H](O)C[C@H]4C(=O)N4CCN(C(=N)N)CC4)c3Cl)c2n1 [Example 15, bistrifluoroacetate]"
  inhibition at 1 µM / %: 100
- MOLECULE: "Cc1cc(C)c2cccc(OCc3c(Cl)ccc(S(=O)(=O)N4CCC[C@H]4C(=O)N4CCN(C(=N)N)CC4)c3Cl)c2n1 [Example 14, bistrifluoroacetate]"
  inhibition at 1 µM / %: 98
- MOLECULE: "Cc1cc(C)c2cccc(OCc3c(Cl)ccc(S(=O)(=O)N4CCC[C@H]4C(=O)N4CCNCC4)c3Cl)c2n1 [Example 5, bistrifluoroacetate]"
  inhibition at 1 µM / %: 100
